Where these numbers come from: paper PMC9090415

Molecular target: P. falciparum apicoplast DNA polymerase (Pf-apPOL) (Plasmodium falciparum, UniProt Q8ILY1)
Sequence (Q8ILY1 entry or part of it): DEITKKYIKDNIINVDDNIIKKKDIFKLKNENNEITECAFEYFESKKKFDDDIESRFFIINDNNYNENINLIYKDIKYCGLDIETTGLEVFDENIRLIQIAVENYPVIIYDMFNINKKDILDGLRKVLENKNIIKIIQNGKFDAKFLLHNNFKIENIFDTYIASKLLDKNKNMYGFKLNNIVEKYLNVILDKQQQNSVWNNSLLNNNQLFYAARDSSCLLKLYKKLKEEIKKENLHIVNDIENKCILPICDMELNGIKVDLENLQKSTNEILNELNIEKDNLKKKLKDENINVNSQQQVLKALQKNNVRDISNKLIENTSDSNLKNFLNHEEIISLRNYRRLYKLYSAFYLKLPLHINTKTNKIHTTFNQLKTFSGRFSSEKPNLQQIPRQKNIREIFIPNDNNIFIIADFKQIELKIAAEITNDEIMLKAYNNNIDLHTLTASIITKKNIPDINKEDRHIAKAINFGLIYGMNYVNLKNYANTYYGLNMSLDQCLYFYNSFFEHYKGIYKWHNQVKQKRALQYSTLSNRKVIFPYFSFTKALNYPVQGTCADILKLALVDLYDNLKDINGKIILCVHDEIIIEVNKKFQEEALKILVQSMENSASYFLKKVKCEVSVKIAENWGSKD
Assay: Fluorescence-based high-throughput DNA polymerase assay (molecular beacon), primary screen and dose-response;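 as to % inhibition apPOL 180': test concentration in µM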
Format: biochemical
Settings: DRC-2; 180'; concentration 20
Please note: satisfied applies when % inhibition apPOL 180' is 50% or greater, and not satisfied applies otherwise.

Some solved entries appear below for comparison.
Input line: hey, is % inhibition apPOL 180' for this one >= 50%? COc1ccc(NC(=O)Cn2ccc3c(=O)[nH]ccc32)cc1Cl [Molecule 10, COc1ccc(cc1Cl)NC(=O)Cn1ccc2c1cc[nH]c2=O]
Output line: satisfied

Input line: Test whether the compound `COc1ccc(S(=O)(=O)/N=C2\NC(=O)/C(=C3\C(=O)Nc4ccc([N+](=O)[O-])cc43)S2)cc1` records % inhibition apPOL 180' of 50% or higher.
Output line: not satisfied

Input line: Could you verify whether the entry `Cc1ccccc1C(=O)N1CCc2c(nc3cc(-c4ccccc4)[nH]n3c2=O)C1` shows % inhibition apPOL 180' of no less than 50%?
Output line: not satisfied

Input line: Quick check, % inhibition apPOL 180' >= 50%? `COCCN(CCOC)Cc1c(O)ccc2c1OC(=Cc1cc(Br)ccc1OC)C2=O`
Output line: not satisfied

Input line: Please indicate if the recorded % inhibition apPOL 180' for `Cc1cc(C)cc(-n2nc3c(c2NC(=O)c2ccco2)CSC3)c1` meets or exceeds 50%.
Output line: satisfied

Input line: Tell me whether % inhibition apPOL 180' is at least 50% here: `COc1ccc(C=C2Oc3c(ccc4c3CN(c3ccc5c(c3)OCO5)CO4)C2=O)cc1OC`
Output line: satisfied

Next:
Input line: I'd appreciate it if you could say whether `CC(=O)c1cc2c(N)c(/C(N)=N/C#N)sc2nc1C` has % inhibition apPOL 180' at least equal to 50%.
Output line: not satisfied

Input line: Hello, I need to know if `Cc1cccc2c(C(=O)NC(C)C)cc(N(C)C)nc12` has measured % inhibition apPOL 180' not below 50%. Thanks!
Output line: not satisfied

Input line: Entry `O=C1NCCCn2cc(S(=O)(=O)Nc3ccccc3)cc21` : is its % inhibition apPOL 180' no less than 50%?
Output line: not satisfied

Input line: In plain terms: is recorded % inhibition apPOL 180' at least 50% for `Cc1ncc(CSc2nc(C(C)(C)C)cs2)c(CO)c1O` ?
Output line: not satisfied

Input line: Is % inhibition apPOL 180' for `O=C1C(=Cc2ccncc2)Oc2c1ccc1c2CN(Cc2ccc3c(c2)OCO3)CO1` at or above 50%?
Output line: not satisfied

Input line: Form field: % inhibition apPOL 180' at least 50%? Entry: `O=C(Nc1ccc2c(c1)Cc1cc(NC(=O)c3ccco3)ccc1-2)c1ccco1`
Output line: not satisfied

----------
Target: P. falciparum apicoplast DNA polymerase (Pf-apPOL) (Plasmodium falciparum, UniProt Q8ILY1)
Experiment: Fluorescence-based high-throughput DNA polymerase assay (molecular beacon), primary screen and dose-response
Type: biochemical
Settings: DRC-1; read at 10'; concentration 40
Could you please report measured % inhibition Apo pol 10' 40 for the items listed next?
One number for each entry, in %.

As a guide, the following entries are already answered.
Input line: Look up % inhibition Apo pol 10' 40 for this compound: CC(=O)OCC1=C(C(=O)[O-])N2C(=O)[C@@H](NC(=O)Cc3cccs3)[C@H]2SC1.[Na+] [Molecule 73]
Output line: 72.9017

Input line: For COc1ccc(C2CC(c3ccc(Cl)cc3Cl)Nc3nc(N)nn32)cc1OC (stereo not drawn) [Molecule 43] , what is its reported % inhibition Apo pol 10' 40?
Output line: 63

We next turn to a different compound, shown below.
Input line: Would you kindly share the measured % inhibition Apo pol 10' 40 for COc1ccc(/C=C/c2cc(C(=O)O)c3ccccc3n2)cc1 [Molecule 5, COc1ccc(cc1)/C=C/c1nc2ccccc2c(c1)C(=O)O] ?
Output line: 71.2771

----------
Would you kindly list % inhibition Apol 40' for each of these compounds?
Target: P. falciparum apicoplast DNA polymerase (Pf-apPOL) (Plasmodium falciparum, UniProt Q8ILY1)
Experiment: Fluorescence-based high-throughput DNA polymerase assay (molecular beacon), primary screen and dose-response;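 as to % inhibition Apol 40': compound concentration given in µM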
Type: biochemical
Conditions: DRC-2, 40', concentration 2.5 (unit not given)
One number for each entry, in %.

Recorded results for 3 compounds are shown here.
Input line: Quick one: % inhibition Apol 40' for `Cc1ccc(C)c(CSc2nc(C3CCCCC3)c(C#N)c(=O)[nH]2)c1` ?
Output line: 13

Input line: % inhibition Apol 40' lookup needed for `O=c1cc(CN2CCCCC2)c2cc3c(cc2o1)OCO3` , thanks.
Output line: 8

Input line: Return reported % inhibition Apol 40'; argument: `Oc1cccc2ccc(/C=C/c3ccc4c(c3)OCO4)nc12`
Output line: 14

# per-item lookup of % inhibition Apol 40'; items listed below
1. O=C(O)c1ccc(-c2nc3cc(-c4ccc5nc(-c6ccc(C(=O)O)cc6)[nH]c5c4)ccc3[nH]2)cc1
2. COc1ccc(-c2c(C(F)(F)F)nn3c(=O)cc(-c4cccc([N+](=O)[O-])c4)[nH]c23)cc1

Output line:
30
13

Below are 4 compounds. Give each one its % inhibition Apol 40'.
1. NS(=O)(=O)c1ccc(NC(=O)c2ccc(N3C(=O)CCC3=O)cc2)cc1
2. COc1cc(NC(=O)c2ccccc2)c(OC)cc1NC(=O)Cc1cccs1
3. O=c1[nH]c2ccc(Br)cc2c(-c2ccccc2)c1C1=NNC(c2ccco2)C1 (stereo not drawn)
4. COCCN(CCOC)Cc1c(O)ccc2c1OC(=Cc1cc(Br)ccc1OC)C2=O

Output line:
1. 8
2. 34
3. 15
4. 10

----------
Molecular target: P. falciparum apicoplast DNA polymerase (Pf-apPOL) (Plasmodium falciparum)
Test: Fluorescence-based high-throughput DNA polymerase assay (molecular beacon), primary screen and dose-response
Type: biochemical
Conditions: DRC-1; 90'; concentration 10
Outcome measure: % inhibition Apol 90' (%)
Give bare numbers, in %.

Look at each molecule and report its % inhibition Apol 90'.
1. O=C(Nc1nnc(-c2ccno2)o1)c1ccc2ncsc2c1
2. COc1ccc(CNC(=O)Cn2nc3c(c2NC(=O)Cc2cccs2)CSC3)cc1
3. N#Cc1c(C2CCCCC2)nc(Sc2ccc(C(F)(F)F)cc2[N+](=O)[O-])[nH]c1=O
4. O=C(NC(C(Cl)Cl)S(=O)(=O)c1ccccc1)c1ccccc1 (stereo not drawn)
5. CCOC(=O)C(NCc1ccco1)(NC(=O)c1ccco1)C(F)(F)F (stereo not drawn)
6. Cc1ccc(CCNC(=O)c2cnn3c(O)c(Cc4ccccc4F)c(C)nc23)cc1

Output line:
10.5152
21.9926
55.7655
39.9321
3.449
-11.7224

Batch of 3 molecules: report % inhibition Apol 90' for each.
1. O=C(NCC1CCN(C2CCCC2)CC1)C(=O)NC1CCCC1
2. CN(C)C=C1SCc2ccccc2C1=O
3. COc1ccc(C(=O)N2CCc3c(nc4cc(-c5ccccc5Cl)[nH]n4c3=O)C2)cn1

Output line:
23.1731
10.9684
33

For each of the items listed, what is its % inhibition Apol 90'?
1. Cn1nc(C(=O)N2CCc3c(nc4cc(-c5ccccc5)[nH]n4c3=O)C2)c2ccccc21
2. CCCCOC(=O)CCCCCN1C(=O)C(=Cc2ccc(OC)cc2)SC1=S

Output line:
[49, 19.2889]

----------
Biological target: P. falciparum apicoplast DNA polymerase (Pf-apPOL) (Plasmodium falciparum)
Experiment: Fluorescence-based high-throughput DNA polymerase assay (molecular beacon), primary screen and dose-response
Type: biochemical
Conditions: DRC-2; 90'; conc 2.5
Outcome measure: % inhibition ApPOL 90' (%)
Give bare numbers, in %.

The cases that follow already have their % inhibition ApPOL 90' on record.
Input line: What does the record list as % inhibition ApPOL 90' for `O=C1Nc2ccc(I)cc2C1=Cc1cc(Br)c(O)c(Br)c1` ?
Output line: 2.27

Input line: GET /values?readout=% inhibition ApPOL 90'&item= Cc1ccccc1NC(=O)Cn1ccc2c(=O)[nH]ccc21 [Molecule 50, O=C(Cn1ccc2c1cc[nH]c2=O)Nc1ccc(cc1)C]
Output line: 0.827

Input line: Any idea what % inhibition ApPOL 90' was measured for `CC(C)CCNC(=O)c1cnn2c(O)cc(CSc3ccc(Cl)cc3)nc12` ?
Output line: -2.68

Now for the compound whose % inhibition ApPOL 90' we want.
Input line: Endpoint output: % inhibition ApPOL 90' of `Cc1ccc(CNC(=O)c2cnn3c(O)cc(CSc4ccc(Cl)cc4)nc23)cc1` . Value?
Output line: 31

----------
Biological target: UniProt:Q8ILY1
Experiment: Fluorescence-based high-throughput DNA polymerase assay (molecular beacon), primary screen and dose-response
Assay type: biochemical
Settings: DRC-1; read at 10'; concentration 2.5
Source text: The HT assay employs a molecular beacon, a stem-loop DNA template with a Cy3 dye and the Black Hole Quencher on the 3′ and 5′ ends of the DNA, respectively. Pf-apPOL concentration is based on a calculated absorptivity of ε280 = 56750 M^−1 cm^−1. […] To identify apPOL inhibitors we utilised our previously developed high-throughput DNA polymerase assay. […] The assay accurately recapitulates the kinetic behaviour of apPOL, as measured through more conventional low-throughput gel-based assays. […]
Outcome measure: % inhibition Apo pol 10' 2.5
Provide a numeric answer, followed by its unit.

Solved cases below.
Input line: Looking for the measured % inhibition Apo pol 10' 2.5 of `Cc1cccc(-c2noc(C(=O)NNC(=O)C(Cl)(Cl)Cl)n2)c1` , can you help?
Output line: 9.201%

Input line: # lookup: % inhibition Apo pol 10' 2.5 of `Cc1nc(C)c2c(n1)N(CC1CCCCC1)C(=O)CC2`
Output line: 34.0428%

Now look at this one.
Input line: Return reported % inhibition Apo pol 10' 2.5; argument: COc1ccc(C2CC(c3ccc(Cl)cc3Cl)Nc3nc(N)nn32)cc1OC (stereo not drawn)
Output line: 35%
